Data provenance: PubChem BioAssay (NCI)

- System: DMS 114 small cell lung
- Experiment summary: NCI tumour cell line growth inhibition, 48 h
Outcome measure: TGI

Worked cases, answers included:
[
  {
    "Molecule": "S=C(N/N=C/c1ccccc1)NC1CC(c2ccccc2)Oc2ccccc21 (stereo not given)",
    "TGI": "> 100 µM"
  },
  {
    "Molecule": "CC(C)(C)C(=O)Cc1cc2c(cc1C(=O)O)S(=O)(=O)NC(C(C)(C)C)=C2",
    "TGI": "> 100 µM"
  },
  {
    "Molecule": "NCCN.O=N[O-].O=N[O-].O=N[O-].O=N[O-].[Co+3].[K+]",
    "TGI": "> 100 µM"
  }
]

TGI reading for O=C1[C@@H]2C3C=CC([C@H]4C(=O)N(CO)C(=O)[C@@H]34)[C@@H]2C(=O)N1CO : > 62.2 µM

So, CCC1OC(=O)C(C)C(OC2CC(C)(O)C(O)C(C)O2)C(C)C(O)C(C)(O)CC(C)C(=O)C(C)C(O)C1C (stereo not given) ? Its TGI was > 300 µM
